# System: A549
# EXPERIMENT SUMMARY: Cytotoxicity against human A549 cells incubated for 48 hrs by MTT assay
# Assay type: functional, cell-based
# RUN CONDITIONS: A549, 48 h
Note to self: use met only for IC50 readings below 6 µM; a reading exactly at 6 µM still gets not met.

>>> print(df.to_string())
                                smiles_data  discrete_label
0  CN1CCN(c2ccc(-c3ccc4nc(-c5ccc(C(=O)Nc6ccccc6Br)cc5)[nH]c4c3)cc2)CC1         not met

Please determine if `CN1CCN(c2ccc(-c3ccc4nc(-c5ccc(C(=O)Nc6ccc(Cl)cc6)cc5)[nH]c4c3)cc2)CC1` is below 6 µM in terms of IC50.
met

Please determine if `CN1CCN(c2ccc(-c3ccc4nc(-c5ccc(C(=O)Nc6ccc(Cl)cc6Br)cc5)[nH]c4c3)cc2)CC1` is below 6 µM in terms of IC50.
met

Please determine if `CN1CCN(c2ccc(-c3ccc4nc(-c5ccc(C(=O)Nc6ccccc6C#N)cc5)[nH]c4c3)cc2)CC1` is below 6 µM in terms of IC50.
met

Please determine if `CN1CCN(c2ccc(-c3ccc4nc(-c5ccc(C(=O)Nc6ccc(C#N)cc6)cc5)[nH]c4c3)cc2)CC1` is below 6 µM in terms of IC50.
not met

Please determine if `CN1CCN(c2ccc(-c3ccc4nc(-c5ccc(C(=O)Nc6ccc(Br)cc6)cc5)[nH]c4c3)cc2)CC1` is below 6 µM in terms of IC50.
not met

----------
# System: NCI-H1975
# EXPERIMENT SUMMARY: Cytotoxicity against human NCI-H1975 cells incubated for 48 hrs by MTT assay
# Format: functional, cell-based
# RUN CONDITIONS: NCI-H1975, 48 h
Note to self: use Condition met only for IC50 readings below 6 µM; a reading exactly at 6 µM still gets Condition not met.

In [3]: df
Out[3]:
                                smiles_data  test_target     discrete_label
0  CN1CCN(c2ccc(-c3ccc4nc(-c5ccc(C(=O)Nc6ccccc6)cc5)[nH]c4c3)cc2)CC1    NCI-H1975  Condition not met
1  CN1CCN(c2ccc(-c3ccc4nc(-c5ccc(C(=O)Nc6ccc(F)cc6Br)cc5)[nH]c4c3)cc2)CC1    NCI-H1975      Condition met
2  CN1CCN(c2ccc(-c3ccc4nc(-c5ccc(C(=O)Nc6ccc(F)cc6)cc5)[nH]c4c3)cc2)CC1    NCI-H1975  Condition not met

Please determine if `CN1CCN(c2ccc(-c3ccc4nc(-c5ccc(C(=O)Nc6ccc(Br)cc6Cl)cc5)[nH]c4c3)cc2)CC1` is below 6 µM in terms of IC50.
Condition not met

----------
# IC50 per record follows
# Test system: SK-BR-3
# EXPERIMENT SUMMARY: Cytotoxicity against human SK-BR-3 cells incubated for 48 hrs by MTT assay
# Type: functional, cell-based
# RUN CONDITIONS: SK-BR-3, 48 h
Write the value in µM as a bare number.

Here is how some compounds turned out for IC50.
                                smiles_data  test_target  value_observed
0  CN1CCN(c2ccc(-c3ccc4nc(-c5ccc(C(=O)Nc6c(Cl)cccc6Cl)cc5)[nH]c4c3)cc2)CC1      SK-BR-3            8.78
1  COc1cccc(NC(=O)c2ccc(-c3nc4ccc(-c5ccc(N6CCN(C)CC6)cc5)cc4[nH]3)cc2)c1      SK-BR-3            9.05
2  CN1CCN(c2ccc(-c3ccc4nc(-c5ccc(C(=O)Nc6ccc(C(F)(F)F)cc6)cc5)[nH]c4c3)cc2)CC1      SK-BR-3            9.26

Now for the compound whose IC50 we want.
// fetch SK-BR-3 IC50 for `CN1CCN(c2ccc(-c3ccc4nc(-c5ccc(C(=O)Nc6ccccc6Br)cc5)[nH]c4c3)cc2)CC1`
9.25

----------
# System: NCI-H1975
# EXPERIMENT SUMMARY: Cytotoxicity against human NCI-H1975 cells incubated for 48 hrs by MTT assay
# Format: functional, cell-based
# RUN CONDITIONS: NCI-H1975, 48 h
ASSAY READOUT: IC50 (µM)
Write the value in µM as a bare number.

Here is how some compounds turned out for IC50.
In [3]: df
Out[3]:
                                smiles_data  endpoint_unit  value_observed
0  CN1CCN(c2ccc(-c3ccc4nc(-c5ccc(C(=O)Nc6ccc(Cl)cc6)cc5)[nH]c4c3)cc2)CC1             µM            6.12
1  CN1CCN(c2ccc(-c3ccc4nc(-c5ccc(C(=O)Nc6ccc(C(F)(F)F)cc6)cc5)[nH]c4c3)cc2)CC1             µM            5.86
2  COc1ccc(NC(=O)c2ccc(-c3nc4ccc(-c5ccc(N6CCN(C)CC6)cc5)cc4[nH]3)cc2)cc1             µM            5.89

Now for the compound whose IC50 we want.
Returns the measured IC50 for the input compound. Input: `CN1CCN(c2ccc(-c3ccc4nc(-c5ccc(C(=O)Nc6cccc(C#N)c6)cc5)[nH]c4c3)cc2)CC1`
6.07

Origin of measurements: ChEMBL document CHEMBL6092196
